- Assay system: hGLP-1R (Homo sapiens, UniProt P43220)
- Sequence (P43220 24-463): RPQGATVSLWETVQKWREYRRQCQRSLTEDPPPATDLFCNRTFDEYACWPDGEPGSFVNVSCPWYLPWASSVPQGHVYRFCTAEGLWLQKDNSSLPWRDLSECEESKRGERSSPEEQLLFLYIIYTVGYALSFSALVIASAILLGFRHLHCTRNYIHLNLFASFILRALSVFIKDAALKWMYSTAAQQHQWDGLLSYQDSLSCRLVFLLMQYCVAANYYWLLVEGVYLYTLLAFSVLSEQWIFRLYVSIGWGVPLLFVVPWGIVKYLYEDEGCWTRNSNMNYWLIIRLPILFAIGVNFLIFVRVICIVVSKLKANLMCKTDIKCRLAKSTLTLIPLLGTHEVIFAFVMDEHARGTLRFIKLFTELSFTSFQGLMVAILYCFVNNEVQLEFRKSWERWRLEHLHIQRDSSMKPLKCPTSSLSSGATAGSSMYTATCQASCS
- Method summary: Functional cAMP activity in the presence of 1% HSA
- Format: cell-based
- Recorded conditions: read-out: cAMP Rel EC50, hGLP-1R
pEC50: −log10 of the molar value. Starred links: 1 amine or outer side, 2 acyl side, 3 side chain; linkers in the order of their positions; H or OH if unused. Non-standard residues stand in square brackets, D forms with d. Groups on a side chain read outwards from the residue. *: point of attachment. C20 diacid = O=C(O)CCCCCCCCCCCCCCCCCCC(=O)*; C18 diacid = O=C(O)CCCCCCCCCCCCCCCCC(=O)*; αMePhe(2-F) = C[C@](N)(Cc1ccccc1F)C(=O)O; γGlu = O=C(O)[C@H](CCC(=O)[*:2])N[*:1]; αMe4Pal = C[C@](N)(Cc1ccncc1)C(=O)O; αMeY = C[C@](N)(Cc1ccc(O)cc1)C(=O)O; 4Pal = N[C@@H](Cc1ccncc1)C(=O)O; αMeL = CC(C)C[C@](C)(N)C(=O)O; αMeS = C[C@](N)(CO)C(=O)O; Orn = NCCC[C@H](N)C(=O)O; AEEA = NCCOCCOCC(=O)O; Aib = CC(C)(N)C(=O)O
Attribute measured: pEC50

1. H-Y[Aib]QGT[αMePhe(2-F)]TSD[4Pal]SILLDKK([γGlu-γGlu-C18 diacid])AQ[Aib]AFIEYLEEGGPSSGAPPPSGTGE-NH2 [Example 510]: 7.13
2. H-Y[Aib]QGTFTSD[4Pal]SQ[αMeL]LD[Orn]K([AEEA-γGlu-C18 diacid])AQ[αMe4Pal]AFIE[αMeY]LIEGGPSSGAPPPSGSEE-NH2 [Example 1041]: 6.50
3. H-Y[Aib]QGT[αMePhe(2-F)]TSD[4Pal][αMeS]I[αMeL]LD[Orn]K([AEEA-γGlu-C18 diacid])AQ[Aib][Orn]FI[dE]YLIEGGPSSGEPPPSGTEE-NH2 [Example 533]: 7.52
4. H-Y[Aib]QGTFTSDFS[Orn][αMeL]LDKK([AEEA-AEEA-γGlu-C18 diacid])AQ[Aib]AFIEYLLE[Aib]GPSSGEPPPSGT-NH2 [Example 167]: 5.89
5. H-Y[Aib]QGTFTSDYSI[αMeL]LDKQAAK([AEEA-AEEA-γGlu-C20 diacid])QFVEWLIA[Aib]GPSSGEPPPGTG-NH2 [Example 336]: 6.64

###

- Assay system: hGIPR (Homo sapiens, UniProt P48546)
- Sequence (P48546 22-466): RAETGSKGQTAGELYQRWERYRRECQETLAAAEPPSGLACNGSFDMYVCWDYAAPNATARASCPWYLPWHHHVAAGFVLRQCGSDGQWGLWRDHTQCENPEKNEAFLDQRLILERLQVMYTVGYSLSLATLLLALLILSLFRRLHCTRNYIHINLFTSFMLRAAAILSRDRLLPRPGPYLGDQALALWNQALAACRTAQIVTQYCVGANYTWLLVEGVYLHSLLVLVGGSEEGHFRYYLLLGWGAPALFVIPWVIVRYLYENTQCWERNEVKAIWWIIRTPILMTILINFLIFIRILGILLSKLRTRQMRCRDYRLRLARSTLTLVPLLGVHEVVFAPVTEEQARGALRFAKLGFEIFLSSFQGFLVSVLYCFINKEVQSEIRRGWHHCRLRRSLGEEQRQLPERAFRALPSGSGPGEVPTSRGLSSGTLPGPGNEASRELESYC
- Method summary: Functional cAMP activation in the presence of 0.1% casein (no HSA);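 further: intracellular cAMP rise after 30 min at 37 °C read by HTRF against a standard curve, scaled between buffer alone (0%) and top control ligand concentration (100%), four-parameter fit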
- Assay type: cell-based
- Recorded conditions: in the presence of 0.1% casein (no HSA); geometric mean; read-out: Relative cAMP EC50, hGIPR
Starred links: 1 amine or outer side, 2 acyl side, 3 side chain; linkers in the order of their positions; H or OH if unused. Non-standard residues stand in square brackets, D forms with d. Groups on a side chain read outwards from the residue. No end group written: not given here. *: point of attachment. C20 diacid = O=C(O)CCCCCCCCCCCCCCCCCCC(=O)*; C18 diacid = O=C(O)CCCCCCCCCCCCCCCCC(=O)*; αMePhe(2-F) = C[C@](N)(Cc1ccccc1F)C(=O)O; γGlu = O=C(O)[C@H](CCC(=O)[*:2])N[*:1]; αMe4Pal = C[C@](N)(Cc1ccncc1)C(=O)O; αMeY = C[C@](N)(Cc1ccc(O)cc1)C(=O)O; Hyp = O=C(O)[C@@H]1C[C@@H](O)CN1; 4Pal = N[C@@H](Cc1ccncc1)C(=O)O; αMeL = CC(C)C[C@](C)(N)C(=O)O; αMeS = C[C@](N)(CO)C(=O)O; Orn = NCCC[C@H](N)C(=O)O; AEEA = NCCOCCOCC(=O)O; Aib = CC(C)(N)C(=O)O
I'd appreciate it if you could label each record using EC50 and these ranges: Low: < 200 pM; Mid: ≥ 200 pM and < 300 pM; High: ≥ 300 pM

1) H-Y[Aib]QGTFTSDFS[Orn][αMeL]LDKK([AEEA-γGlu-C18 diacid])AQ[Aib]AFIEWLLEGGHSSGEPPPEGS-NH2 [Example 127]: High
2) H-Y[Aib]QGTFTSDFS[Orn][αMeL]LDKK([AEEA-γGlu-C18 diacid])AQ[Aib]AFIEYLLEGG[4Pal]SSGAPPPGGS-NH2 [Example 163]: High
3) H-Y[Aib]QGTFTSD[4Pal]SK[αMeL]LDKK([AEEA-γGlu-C18 diacid])AQ[Aib]AFIEYLIE[Aib]GESSGEPPPSGS-NH2 [Example 282]: Low
4) Y[Aib]QGT[αMePhe(2-F)]TSDYSKLLDKIAQK([AEEA-γGlu-C20 diacid])AFIQYLIEGGPSSGEPPPSEG-NH2 [Example 338]: Low
5) H-Y[Aib]QGTFTSD[4Pal]SQ[αMeL]LDKK([AEEA-γGlu-C18 diacid])AQ[αMe4Pal]AFIEYLIE[Aib]GPSSGAPPPSGE-NH2 [Example 881]: Mid
6) H-Y[Aib]QGTFTSDYSI[αMeL]LDKQAAK([AEEA-AEEA-γGlu-C20 diacid])QFVEWLIA[Aib]GPSSGEPPPAEG-NH2 [Example 334]: Mid
7) H-Y[Aib]QGTFTSDFS[Orn][αMeL]LDKK([AEEA-γGlu-C18 diacid])AQ[Aib]AFIEYLLEGGPSSGAPP[Hyp]GGS-NH2 [Example 237]: Mid
8) H-Y[Aib]QGTFTSDYSI[αMeL]LDKQAAK([AEEA-AEEA-γGlu-C20 diacid])QFVEWLLA[Aib]GPSSGAPPPSEG-NH2 [Example 327]: High
9) H-Y[Aib]QGTFTSD[4Pal]SQ[αMeL]LDKK([AEEA-γGlu-C18 diacid])AQ[αMe4Pal]AFIEYLIE[Aib]GPSSGAPPPSSS-NH2 [Example 848]: Low
10) Y[Aib]QGT[αMePhe(2-F)]TSD[4Pal][αMeS]I[αMeL]LD[Orn]K([AEEA-γGlu-C18 diacid])AQ[αMe4Pal]EFI[dE][αMeY]LIEGGPSSGEPPPESE-NH2 [Example 1147]: Low
11) H-Y[Aib]QGTFTSD[4Pal]S[Orn][αMeL]LDKK([AEEA-γGlu-C18 diacid])AQ[Aib]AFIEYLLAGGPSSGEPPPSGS-NH2 [Example 154]: Mid
12) H-Y[Aib]QGTFTSD[4Pal]S[Orn][αMeL]LD[Orn]K([Glu-γGlu-C18 diacid])AQ[αMe4Pal]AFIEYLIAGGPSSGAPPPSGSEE-NH2 [Example 1061]: High

The measured values listed here are drawn from patent US20240270821A1.
